# assayProtocol: folding stability dG unfold from trypsin proteolysis; higher = more stable
Some sequences, each annotated with its measured folding stability dG unfold.
measurementLabel: folding stability dG unfold (kcal/mol)

1) SAGGSAGPSVTVDVTFHPGEGTVDVTVTTEGEVVYGKGTFLNPSTVLVEVYFPGSGKVATLTLPVTSAGGSA [r15_837_TrMRF] ... 1.87
2) SAKFRVSISYDPPDGYLTIMFRYPNPNQPITPEEIEEIAREILEERGHKVKIDEIHHEGNYFMIKIKLPSAG [r14_556_TrROS] ... 2.51
3) SAGGGLSPDTPVNYVVFVELPNGERRTFNVPGPAGRPEVAIAIAEKLREEGYEVKAIFPGEGVIVVGSAGGS [r8_497_TrMRF] ... 2.88
4) SAGGSKVTLEVNEDGTVTLTVTRPDGKKVTLTITKNEDGTYTIRDEETGKTITVPAGMSIEELLKASAGGSA [r2_338_TrROS_Hall] ... 3.69
5) SAGGSAMSVTLTFEEPVGPGVPVKVTVTVERFPDSVKVTVTTTFPDGTVTTTPVSLKLEPAAVDLLSAGGSA [r15_263_JUSTAS] ... 2.44
6) SAGGMTITIPVTESGSLEEALALAERVAEEARAAGLEEVTITVTVYDPANGEVLYTKTRRVPVRPEASAGGS [r8_33_JUSTAS] ... 2.03
7) SLLELAKQANGPLKINVKSEWVTLPDGTPVEIINVEVSQDPNSDVATVTKTVVDPDKDTSSTSTSTIPLGSS [r1_448_JUSTAS] ... -0.95
